Test system: MCF-7 (breast carcinoma)
Assay: MTS cell viability assay, MCF-7
Format: cell-based
Details: Homo sapiens, MCF7, 72 h incubation
A collection of compounds and their measured pIC50
# log scale: pIC50 equals minus log10 of the concentration in mol/L

{"Compound": "C=C(C=O)[C@@H]1CC[C@]2(COC(C)=O)CC[C@]3(C)[C@H](CC[C@@H]4[C@@]5(C)CCC(=O)C(C)(COC(C)=O)[C@@H]5CC[C@]43C)[C@@H]12 (stereo partly drawn) [Compound 49a]", "pIC50": 5.40}

Field: next compound
Entry under review: C=C(C)[C@@H]1CC[C@]2(CO)CC[C@]3(C)[C@H](CC[C@@H]4[C@@]5(C)CCC(N)C(C)(CO)[C@@H]5CC[C@]43C)[C@@H]12 (stereo partly drawn) . Reported pIC50?
5.30
